tested on: U2OS; assay: Incucyte cell viability with U2OS; format: toxicity, cell-based; conditions: human, 18 h, 10 µM, compound concentration 10 uM, replicate number 1; also: unitless GR value; below 1 slowed growth and below 0 cell loss
Provide the recorded Growth Rate for the entries that follow.
Answers are plain numbers.

Answered examples (5):
[[record]]
compound = "O=C(Nc1cccc(Nc2nccc(Nc3cccc(C(F)(F)F)c3)n2)c1)C1CC1 [ANILINOPYRIMIDINE1]"
propertylabel = "Growth Rate"
number = -0.21

[[record]]
compound = "C=CC[C@@H]1/C=C(\\C)C[C@H](C)C[C@H](OC)[C@H]2O[C@@](O)(C(=O)C(=O)N3CCCC[C@H]3C(=O)O[C@H](/C(C)=C/[C@@H]3CC[C@@H](O)[C@H](OC)C3)[C@H](C)[C@@H](O)CC1=O)[C@H](C)C[C@@H]2OC.O [TACROLIMUS]"
propertylabel = "Growth Rate"
number = 0.81

[[record]]
compound = "COc1c(OCCCN2CCOCC2)ccc2c1N=C(NC(=O)c1cnc(N)nc1)N1CCN=C21 [COPANLISIB]"
propertylabel = "Growth Rate"
number = 0.98

[[record]]
compound = "OCC1OC(n2cnc3cc(Cl)c(Cl)cc32)C(O)C1O (stereo unspecified)"
propertylabel = "Growth Rate"
number = 0.33

[[record]]
compound = "CC(C)(C)S(=O)(=O)c1ccc2nccc(Nc3n[nH]c4ccc(F)cc34)c2c1"
propertylabel = "Growth Rate"
number = 0.1


Working through the 7 compounds below one at a time, give Growth Rate for each.
1. Cc1cc(=O)oc2cc(NC(=O)[C@H](Cc3ccc(I)cc3)NC(=O)[C@H]3N[C@@H]4CC[C@H]3C4)ccc12.O=C(O)C(F)(F)F
2. COc1cc(N2CCC(N3CCN(C)CC3)CC2)ccc1Nc1ncc(Cl)c(Nc2ccccc2S(=O)(=O)C(C)C)n1 [TAE-684]
3. Nc1ncc2c(n1)-c1c([nH]c3ccc(C4=CCOCC4)cc13)CCC2
4. Cc1c[nH]c(-c2cnc(NCCNc3ccc(C#N)cn3)nc2-c2ccc(Cl)cc2Cl)n1 [LADUVIGLUSIB]
5. CCCOc1cnc(CN/C=C2\C(=O)NC(=O)c3ccc(I)cc32)cc1O
6. CCc1ccccc1C(=O)Nc1n[nH]c2c(C)c(F)c(C3C(C#N)=C(C)N(C)C(C)=C3C#N)cc12 [BAY-3827]
7. CN(C)C/C=C/C(=O)Nc1ccc(C(=O)Nc2cccc(Nc3ncc(Cl)c(-c4c[nH]c5ccccc45)n3)c2)cc1

Output:
[0.97, -0.06, 0.96, 0.83, 0.45, 0.9, 0.29]

Working through the 4 compounds below one at a time, give Growth Rate for each.
1. CCC(F)(F)c1cc(N2CCC(S(C)(=O)=O)CC2)nc2sc(C(N)=O)c(N)c12 [BI-605906]
2. COc1ccc(Cl)cc1[C@]1(F)C(=O)Nc2cc(C(F)(F)F)ccc21 [FLINDOKALNER]
3. CC(=O)c1ccc2c(c1)/C(=C(/Nc1cccc(C#N)c1)c1ccc3c(c1)OCCO3)C(=O)N2
4. CN(C)C(=O)c1sc2nc(N3CCC(S(C)(=O)=O)CC3)cc(C(F)(F)F)c2c1N [BI-5026]

Output:
[0.91, 0.79, 0.73, 0.84]

###

system: HEK-293T; assay: Incucyte cell viability with HEK293T; assay type: toxicity, cell-based; details: human, 18 h, 10 µM, compound concentration 10 uM, replicate number 1; also: unitless GR value; below 1 slowed growth and below 0 cell loss
// label = 1 if Growth Rate is not less than 0.7, otherwise 0

Solved entries:
[[record]]
compound = "C=CC(=O)Nc1ccc(C(=O)Nc2n[nH]c3c2CN(C(=O)N[C@H](CN(C)C)c2ccccc2)C3(C)C)cc1"
assignedcategory = 0

[[record]]
compound = "C1=Cc2ccccc2C(=C2CCN(CCCCc3nn[nH]n3)CC2)c2ccccc21"
assignedcategory = 1

[[record]]
compound = "CN1CCCN(C(=O)c2cccc(-c3ccc(/C=C4/C(=O)Nc5ccc(Cl)cc54)o3)c2)CC1"
assignedcategory = 0

[[record]]
compound = "CNS(=O)(=O)c1ccc(N(C)C)c(Nc2ncnc3cc(OC)c(OC)cc23)c1"
assignedcategory = 1

[[record]]
compound = "CCC(C)(C)NC(=NC#N)Nc1cccnc1"
assignedcategory = 0


Kindly review the next compound as well.
Input: Test whether the compound CC(C)(C)c1cnc(CSc2cnc(NC(=O)C3CCN(CC(=O)NCCOCCOCCOCCNc4cccc5c4C(=O)N(C4CCC(=O)NC4=O)C5=O)CC3)s2)o1 (stereo not drawn) records Growth Rate of 0.7 or higher.
Output: 0
